Data origin: ChEMBL document CHEMBL1155018

- test_name: physchem
- test_parameters: octanol/water, pH 7.4
Listing of entries alongside the reported logD.

compound: O=S(=O)(c1ccccc1)c1ccccc1
logD: 2.41
--
compound: O=C1CCCN1Cc1ccccc1
logD: 1.32
--
compound: c1ccc(Cn2ccnc2)cc1
logD: 1.55
--
compound: COc1ccc(C#N)cc1
logD: 1.75
--
compound: CN(C)C(=O)c1ccccc1
logD: 0.71
--
compound: CN(C)C(=O)N(C)c1ccccc1
logD: 1.6
--
compound: O=[N+]([O-])c1ccccc1
logD: 1.83
--
compound: [O-][S+](c1ccccc1)c1ccccc1
logD: 2.1
--
compound: O=c1ccccn1Cc1ccc(C(F)(F)F)cc1
logD: 2.47
--
compound: CN1C(=O)c2ccccc2C1=O
logD: 1.32
--
compound: Cc1ccc2occc(=O)c2c1
logD: 1.9
--
compound: N#Cc1ccccc1
logD: 1.56
--
compound: O=c1ccccn1Cc1ccccc1
logD: 1.37
--
compound: c1ccc2nocc2c1 [BENZO[C]ISOXAZOLE]
logD: 1.49

---

- test_name: physchem
- test_parameters: octanol/water, pH 7.4
Listing of entries alongside the reported logD.
readout_type: logD

given_smiles: O=c1ccn(Cc2ccc(-c3ccccc3)cc2)cc1
readout_type: logD
endpoint_result: 2.47

given_smiles: c1ccc2cnccc2c1
readout_type: logD
endpoint_result: 2.09

given_smiles: c1cnc2cccnc2c1
readout_type: logD
endpoint_result: 0.79

given_smiles: Cn1cnc2ccccc21
readout_type: logD
endpoint_result: 1.34

given_smiles: CN1Cc2ccccc2C1=O
readout_type: logD
endpoint_result: 0.87

given_smiles: O=C1Cc2ccccc2CO1
readout_type: logD
endpoint_result: 1.02

given_smiles: CCn1c(C)cc(=O)c2ccc(Cl)cc21
readout_type: logD
endpoint_result: 1.8

given_smiles: c1ccc2ncccc2c1
readout_type: logD
endpoint_result: 1.99

---

- test_name: physchem
- test_parameters: octanol/water, pH 7.4
If the reported logD equals or exceeds 2, assign 1. If not, assign -1.

given_smiles: c1ccc2c(c1)COC2
category_label: -1
//
given_smiles: c1ccc2nccnc2c1
category_label: -1
//
given_smiles: COc1ccccc1
category_label: 1
//
given_smiles: Clc1ccc2cc[nH]c2c1
category_label: 1
//
given_smiles: c1ccc2[nH]ccc2c1
category_label: 1
//
given_smiles: CN1C(=O)Cc2ccccc21
category_label: -1
//
given_smiles: CN(C)C(=O)Cc1ccc(Br)cc1
category_label: -1
//
given_smiles: Cn1c(=O)n(C)c2ccccc21
category_label: -1
//
given_smiles: Cn1c(=O)ccc2ccccc21
category_label: -1

---

- test_name: physchem
- test_parameters: octanol/water
Listing of entries alongside the reported logP.

compound: c1ccc2nnccc2c1 [CINNOLINE]
logP: 1.01
--
compound: Cc1cnccn1
logP: 0.23
--
compound: Clc1ccc2ncncc2c1
logP: 1.78
--
compound: Clc1ccc(Cn2ccnn2)cc1
logP: 1.78

---

- test_parameters: hexadecane/water, pH 7.4
Threshold 0.2: logD strictly smaller gives fulfilled, otherwise not fulfilled.

given_smiles: CN1C(=O)Cc2ccccc21
category_label: fulfilled

given_smiles: COc1ccccc1
category_label: not fulfilled

given_smiles: c1ccc2c(c1)COC2
category_label: not fulfilled

given_smiles: CCn1c(C)cc(=O)c2ccc(Cl)cc21
category_label: fulfilled

given_smiles: COc1ccc(C#N)cc1
category_label: not fulfilled

given_smiles: O=C1Cc2ccccc2CO1
category_label: fulfilled

given_smiles: c1ccc2[nH]ccc2c1
category_label: not fulfilled

given_smiles: O=c1ccccn1Cc1ccc(C(F)(F)F)cc1
category_label: fulfilled

given_smiles: Cn1cnc2ccccc21
category_label: fulfilled

given_smiles: c1ccc(Cn2ccnc2)cc1
category_label: fulfilled

given_smiles: [O-][S+](c1ccccc1)c1ccccc1
category_label: not fulfilled

given_smiles: CN(C)C(=O)Cc1ccc(Br)cc1
category_label: fulfilled

given_smiles: CN1Cc2ccccc2C1=O
category_label: fulfilled

given_smiles: O=c1ccccn1Cc1ccccc1
category_label: fulfilled
